Every entry's value here was drawn from patent US9029337B2.

% Inhibition listing for selected substances.
system: human Factor 7 mRNA; experiment: Antisense inhibition of human Factor 7 with short (14-mer) oligonucleotides in HepB3 cells, electroporation 1,000 nM; assay type: cell-based; conditions: electroporation, 1,000 nM antisense oligonucleotide, approximately 24 hours, Factor 7 mRNA relative to untreated control cells
Strand notation (5' to 3'): a small letter for the sugar, then the base; units joined by * are phosphorothioate-linked, units joined directly phosphodiester-linked; [ ] holds rarer units or linkages, { } end groups; capitals alone tell only the bases. e = 2'-O-(2-methoxyethyl) (MOE); [5mC] = 5-methylcytosine; d = 2'-deoxy (DNA)

>  <Substance>
435815 (antisense e[5mC]*eT*d[5mC]*dT*dT*d[5mC]*d[5mC]*dG*dA*dG*d[5mC]*dA*eG*e[5mC]) [compound 435815]

>  <Unit Abbreviation>
%

>  <% Inhibition>
59

$$$$
>  <Substance>
435674 (antisense eA*eA*dA*d[5mC]*dA*dG*dT*dG*dG*dG*d[5mC]*d[5mC]*eG*e[5mC]) [compound 435674]

>  <Unit Abbreviation>
%

>  <% Inhibition>
34

$$$$
>  <Substance>
435814 (antisense eT*eG*dA*d[5mC]*dG*dA*dG*dA*dG*dG*dA*d[5mC]*e[5mC]*eA) [compound 435814]

>  <Unit Abbreviation>
%

>  <% Inhibition>
31

$$$$
>  <Substance>
435850 (antisense e[5mC]*eT*dT*dG*dG*d[5mC]*d[5mC]*dA*dG*dT*dG*dT*eG*eG) [compound 435850]

>  <Unit Abbreviation>
%

>  <% Inhibition>
15

$$$$
>  <Substance>
435793 (antisense eT*eG*d[5mC]*dA*dG*dT*dA*dG*d[5mC]*dA*dG*dA*eT*eG) [compound 435793]

>  <Unit Abbreviation>
%

>  <% Inhibition>
27

$$$$
